Field: kd. Provide a value for each of the molecules that follow.
Molecular target: T1, human ARG2 (Homo sapiens, UniProt P78540, E275H/R327K)
T1 construct: His10 (after a GGG linker) (C); made in house; host or cells: E. coli BL21 (DE3)
T1 sequence (P78540 23-354 E275H/R327K): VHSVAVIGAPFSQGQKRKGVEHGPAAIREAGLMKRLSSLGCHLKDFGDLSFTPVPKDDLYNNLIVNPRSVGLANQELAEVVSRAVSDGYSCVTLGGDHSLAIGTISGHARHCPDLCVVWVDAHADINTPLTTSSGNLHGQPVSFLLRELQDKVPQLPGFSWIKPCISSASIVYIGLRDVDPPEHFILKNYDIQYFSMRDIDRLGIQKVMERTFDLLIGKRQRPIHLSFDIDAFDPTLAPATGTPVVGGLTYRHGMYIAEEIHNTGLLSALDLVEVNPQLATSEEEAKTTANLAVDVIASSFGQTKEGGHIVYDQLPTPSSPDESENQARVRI
Test: Bio-Layer Interferometry (OctetRED) binding kinetics, human ARG2
Conditions: Fab as analyte; streptavidin capture; analyte 1.8 to 120 nM; affinity-matured antibodies

The molecule listed as C0021118 Fab (antibody, V domains shown) VH: EVQLLESGGGLVQPGGSLRLSCAASGFTFSSYAMSWVRQAPGKGLEWVSASLTNPGSTYYADSVKGRFTISRDNSKNTLYLQMNSLRAEDTAVYYCARLRADLGLYMDLWGRGTLVTVSS VL: QSVLTQPPSVSAAPGQKVTISCSGSSSNIGNHYVSWYQQLPGTAPKLLIYDNSERPSGIPDRFSGSKSGTSATLGITGLQTGDEADYYCATYDTNLSALVFGGGTKLTVL has a reported kd of 0.00114 s⁻¹

The molecule listed as C0021022: anti-ARG2 antibody, VH SEQ ID NO: 42, VL SEQ ID NO: 47 (antibody, listed as Homo sapiens, V domains shown, C0021022) VH: EVQLLESGGGLVQPGGSLRLSCAASGFTFSSYAMSWVRQAPGKGPEWVSAISGFSPYYADSVKGRFTISRDNSKNTLYLQMNSLRAEDTAVYYCARLRADLGLYMDLWGRGTLVTVSS VL: QSVLTQPPSVSAAPGQKVTISCSGSSSNIGNHYVSWYQQLPGTAPKLLIYDNSERPSGIPDRFSGSKSGTSATLGITGLQTGDEADYYCGTWDSSLSALVFGGGTKLTVL has a reported kd of 0.00112 s⁻¹
